# run-description: Biological half-life was measured in plasma of rats
# Type: ADME, organism-based
# study-conditions: rat
experimental-readout: half-life

>  <compound-structure>
Cc1c(O)cccc1C(=O)N[C@@H](Cc1ccccc1)[C@@H](O)C[C@H](Cc1ccccc1)NC(=O)c1ccccc1NC(=O)OCc1ccccn1

>  <half-life>
133 min

$$$$

Moving on to the next compound.
Ask: Can you share its half-life? I mean this compound: `O=C(Nc1ccccc1C(=O)N[C@@H](Cc1ccccc1)C[C@H](O)[C@H](Cc1ccccc1)NC(=O)OCc1cncs1)OCc1ccccn1`
Result: 480 min

###

So I've got a bunch of compounds here, and I need their bioavailability values.
# run-description: Oral bioavailability in rat
# Format: ADME, organism-based
# study-conditions: in vivo
Answers are plain numbers, in %.

Use the examples below as a reference point.
>  <compound-structure>
O=C(Nc1ccccc1C(=O)N[C@@H](Cc1ccccc1)C[C@H](O)[C@H](Cc1ccccc1)NC(=O)O[C@@H]1CCOC1)OCc1ccccn1

>  <units>
%

>  <bioavailability>
6

$$$$
>  <compound-structure>
O=C(Nc1ccccc1C(=O)N[C@@H](Cc1ccccc1)C[C@H](O)[C@H](Cc1ccccc1)NC(=O)OCc1cncs1)OCc1ccccn1

>  <units>
%

>  <bioavailability>
30

$$$$

API: the following record is the query input.
Ask: // returns reported bioavailability for input `Cc1c(O)cccc1C(=O)N[C@@H](Cc1ccccc1)[C@@H](O)C[C@H](Cc1ccccc1)NC(=O)c1ccccc1NC(=O)OCc1ccccn1`
Result: 1
